Test system: UMC-11
Assay: relative viability (nuclei count vs DMSO), 5 days (fraction); higher = more cells survive
Settings: first compound 1.265 µM
Define the label as y when relative viability is strictly less than 0.6 and as n in all remaining cases.

Reference set, count: 3
O=C(O)c1ccc(-c2c[nH]c3ncc(-c4ccccc4)cc23)cc1C1CCCC1 + Cc1nc(Nc2ncc(C(=O)Nc3c(C)cccc3Cl)s2)cc(N2CCN(CCO)CC2)n1 [Dasatinib] (partner 0.075 µM) ... y
O=C(O)c1ccc(-c2c[nH]c3ncc(-c4ccccc4)cc23)cc1C1CCCC1 + Nc1nc2[nH]cc(CCc3ccc(C(=O)N[C@@H](CCC(=O)O)C(=O)O)cc3)c2c(=O)[nH]1 [Pemetrexed] (partner 0.2 µM) ... n
O=C(O)c1ccc(-c2c[nH]c3ncc(-c4ccccc4)cc23)cc1C1CCCC1 + CC(=O)c1c(C)c2cnc(Nc3ccc(N4CCNCC4)cn3)nc2n(C2CCCC2)c1=O [Palbociclib] (partner 0.5 µM) ... y

Record O=C(O)c1ccc(-c2c[nH]c3ncc(-c4ccccc4)cc23)cc1C1CCCC1 + Cc1nc(NC(=O)N2CCC[C@H]2C(N)=O)sc1-c1ccnc(C(C)(C)C(F)(F)F)c1 [Alpelisib] (partner 2 µM) : is its relative viability strictly below 0.6?
n
